- Test system: ATP;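 note: ATP exposure 15 min at 22 °C before imaging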
- protocol-text: switch fluorescence ratio, 500 uM ATP over buffer (Cy3 cluster intensity, sum of 5 cycles each) (fold (ratio)); higher = stronger signal-on switching upon ATP binding; sequences stand for … in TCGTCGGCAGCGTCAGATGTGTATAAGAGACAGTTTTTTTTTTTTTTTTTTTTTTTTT…TC
- experimental-parameters: aptamer strand: ATP DNA aptamer (quencher-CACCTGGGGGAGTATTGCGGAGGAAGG + anchor), 100 nM annealed; ATP concentration: 500 uM
Readings of switch fluorescence ratio for the listed sequences
value-kind: switch fluorescence ratio

| monomer-sequence | measured-number |
| --- | --- |
| TCAATCTAAC | 1.35 |
| GTTAATTACA | 1.03 |
| TATTTTGTCT | 1.1 |
| TTTGGGTATC | 0.982 |
| CGTTTCTAAG | 0.967 |
| CAGGTTTTGG | 0.964 |
| GCAGTATTTT | 1.01 |
| CATTTTGTAT | 0.998 |

* * *

- Test system: ATP;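 note: ATP exposure 15 min at 22 °C before imaging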
- protocol-text: switch fluorescence ratio, 500 uM ATP over buffer (Cy3 cluster intensity, sum of 5 cycles each) (fold (ratio)); higher = stronger signal-on switching upon ATP binding; sequences stand for … in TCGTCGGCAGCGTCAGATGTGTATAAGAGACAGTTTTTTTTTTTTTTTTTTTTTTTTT…TC
- experimental-parameters: aptamer strand: ATP DNA aptamer (quencher-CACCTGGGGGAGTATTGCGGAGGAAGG + anchor), 100 nM annealed; ATP concentration: 500 uM
Readings of switch fluorescence ratio for the listed sequences
value-kind: switch fluorescence ratio

| monomer-sequence | target-or-system | measured-number |
| --- | --- | --- |
| GAGTATCTGC | ATP | 1.01 |
| ATTTTCTTAG | ATP | 0.999 |
| AATATTATGG | ATP | 1 |
| AAGATGTAGC | ATP | 1.01 |
| TTATTTTTT | ATP | 1.02 |
| CAGTTTGGGT | ATP | 1.01 |
| AGAATTCTAG | ATP | 1.01 |
| TGATGCCGAA | ATP | 1.02 |
| GTTAGCCTTG | ATP | 1 |
| GTGATAAGGT | ATP | 1 |
| GATTCTAGGG | ATP | 0.992 |
| TGCAGCATCA | ATP | 1.11 |
| TTAGATTGCA | ATP | 1 |
| CCGTGGTTTT | ATP | 0.991 |
| TGGTCAGAGT | ATP | 1.01 |
| ATCGGCTCTG | ATP | 0.991 |
| CCGCGGCTGG | ATP | 1.15 |
| CAGGTCGACG | ATP | 1.05 |
| TTCAGCTGTT | ATP | 1.01 |
| AGGATTGAAC | ATP | 0.991 |
| GGGGGGAACT | ATP | 0.987 |
| AACGAATTCA | ATP | 1.05 |
| TCGGCGGGTC | ATP | 0.997 |
| GGGGGGGCAG | ATP | 0.986 |
| TTGAGGGATA | ATP | 1.01 |

* * *

- Tested on: ATP;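 note: ATP exposure 15 min at 22 °C before imaging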
- protocol-text: switch fluorescence ratio, 500 uM ATP over buffer (Cy3 cluster intensity, sum of 5 cycles each) (fold (ratio)); higher = stronger signal-on switching upon ATP binding; sequences stand for … in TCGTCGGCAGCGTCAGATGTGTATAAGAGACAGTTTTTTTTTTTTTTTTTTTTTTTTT…TC
- experimental-parameters: aptamer strand: ATP DNA aptamer (quencher-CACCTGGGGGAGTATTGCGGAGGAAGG + anchor), 100 nM annealed; ATP concentration: 500 uM
value-kind: switch fluorescence ratio

| monomer-sequence | measured-number |
| --- | --- |
| GGTGGGAAGG | 0.993 |
| TAAGGCGGTA | 0.963 |
| ATTTACGGCA | 1.11 |

* * *

- System: ATP;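 note: ATP exposure 15 min at 22 °C before imaging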
- protocol-text: switch fluorescence ratio, 500 uM ATP over buffer (Cy3 cluster intensity, sum of 5 cycles each) (fold (ratio)); higher = stronger signal-on switching upon ATP binding; sequences stand for … in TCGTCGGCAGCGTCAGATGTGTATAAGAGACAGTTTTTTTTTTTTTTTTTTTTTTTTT…TC
- experimental-parameters: aptamer strand: ATP DNA aptamer (quencher-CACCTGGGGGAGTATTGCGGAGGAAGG + anchor), 100 nM annealed; ATP concentration: 500 uM
Readings of switch fluorescence ratio for the listed sequences
value-kind: switch fluorescence ratio

| monomer-sequence | target-or-system | measured-number |
| --- | --- | --- |
| TTCGGGGTTT | ATP | 1.02 |
| TTTTGGGAT | ATP | 1.04 |
| TGGTACTTGT | ATP | 1.01 |
| GGGCGCCCCA | ATP | 0.976 |
| GGTTCTTAGG | ATP | 1.01 |
| CGTCCCAGCT | ATP | 1.12 |
| AGTAGGAATT | ATP | 0.99 |
| AAAAGGCGTG | ATP | 1.01 |
| GTGGTTCGGG | ATP | 0.975 |
| TTGATCCGAC | ATP | 1.35 |
| AGAGAAGTGA | ATP | 0.986 |
| GGCCTATAAC | ATP | 1 |
| TTCAATGAGG | ATP | 0.973 |
| ATAGAATTGG | ATP | 1.02 |
| AAACTCATGA | ATP | 0.983 |
| AGGGGAGGGG | ATP | 1.02 |
| CGTTACAGGT | ATP | 1.04 |
| GTGAAATTGT | ATP | 1.01 |
| TAGGGGCGGG | ATP | 0.971 |
| CGGGAAATTG | ATP | 0.989 |
| ATATTTTGGG | ATP | 1 |
| TTTTGGAATG | ATP | 1.01 |
| GGCTAATGCG | ATP | 1.01 |
| TGGCACGCGG | ATP | 0.986 |
| AGTGAGAGGG | ATP | 0.966 |
| TTGCTTTGTA | ATP | 0.943 |
| AGAAAGGGTT | ATP | 0.98 |
| AAGCTAATTC | ATP | 1.19 |
| CGTTGTTTTG | ATP | 0.985 |

* * *

- System: ATP;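 note: ATP exposure 15 min at 22 °C before imaging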
- protocol-text: switch fluorescence ratio, 500 uM ATP over buffer (Cy3 cluster intensity, sum of 5 cycles each) (fold (ratio)); higher = stronger signal-on switching upon ATP binding; sequences stand for … in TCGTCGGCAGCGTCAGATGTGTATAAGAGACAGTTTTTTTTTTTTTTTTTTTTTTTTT…TC
- experimental-parameters: aptamer strand: ATP DNA aptamer (quencher-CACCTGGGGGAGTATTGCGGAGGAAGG + anchor), 100 nM annealed; ATP concentration: 500 uM
value-kind: switch fluorescence ratio

| monomer-sequence | target-or-system | value-kind | measured-number |
| --- | --- | --- | --- |
| CTGTAGACGG | ATP | switch fluorescence ratio | 1.05 |
| TACTTGTTAT | ATP | switch fluorescence ratio | 0.989 |
| GAATAAATTT | ATP | switch fluorescence ratio | 1.02 |
| AATTGCCGCG | ATP | switch fluorescence ratio | 1.02 |
| AACACAGGTA | ATP | switch fluorescence ratio | 1.06 |
| GCTGGGGGGT | ATP | switch fluorescence ratio | 1 |
| CACTAGGCTT | ATP | switch fluorescence ratio | 1 |
| ACCTATGGGA | ATP | switch fluorescence ratio | 1 |
| GGGGCGACTA | ATP | switch fluorescence ratio | 1.03 |
| TGGGTCGGGA | ATP | switch fluorescence ratio | 0.982 |
| AGGGAAATGG | ATP | switch fluorescence ratio | 0.979 |
| AGGTCGGGCG | ATP | switch fluorescence ratio | 0.982 |
| GGACGACCGG | ATP | switch fluorescence ratio | 1.02 |
| GACGGCTGGA | ATP | switch fluorescence ratio | 1.01 |
| TGCAACGTAT | ATP | switch fluorescence ratio | 1.13 |
| CGCAGGTTAG | ATP | switch fluorescence ratio | 1.11 |
| ATTTTGGGTC | ATP | switch fluorescence ratio | 0.991 |
| AGAACTCACC | ATP | switch fluorescence ratio | 1.19 |
| TTTAATTTAG | ATP | switch fluorescence ratio | 1.02 |
| CCAGGGCAGC | ATP | switch fluorescence ratio | 1.06 |
| AGGTAGTTTT | ATP | switch fluorescence ratio | 0.982 |
| CAGTGCGCGC | ATP | switch fluorescence ratio | 1.01 |
| TTAAATAAAA | ATP | switch fluorescence ratio | 0.999 |
| GTTTTGGGAT | ATP | switch fluorescence ratio | 1.02 |
| TATTGGAGAT | ATP | switch fluorescence ratio | 1 |
| AGGAAAAGGG | ATP | switch fluorescence ratio | 1.14 |
| TAAGAAGTAT | ATP | switch fluorescence ratio | 0.999 |
| ATTCGGGACC | ATP | switch fluorescence ratio | 0.973 |
| AAAGCCGAAT | ATP | switch fluorescence ratio | 0.99 |
| CGTGGGGGTA | ATP | switch fluorescence ratio | 0.996 |
| GCCTGTTGCA | ATP | switch fluorescence ratio | 0.971 |
| TGCAGGAGGG | ATP | switch fluorescence ratio | 0.972 |
| AGATTTTTCG | ATP | switch fluorescence ratio | 1.04 |
| TGGGTGTAGG | ATP | switch fluorescence ratio | 1.01 |
| GTGCGGTGGC | ATP | switch fluorescence ratio | 1.04 |
| GATTCATGGG | ATP | switch fluorescence ratio | 1.01 |
| ATGAATTCGG | ATP | switch fluorescence ratio | 1.01 |
| GTTGTGAGAG | ATP | switch fluorescence ratio | 0.999 |
| GCTATGCCTA | ATP | switch fluorescence ratio | 0.997 |
| TGCTGGCTGG | ATP | switch fluorescence ratio | 0.973 |
| CTGAGGGAAA | ATP | switch fluorescence ratio | 0.988 |
| CGACATACGA | ATP | switch fluorescence ratio | 1.56 |
| AACTGCGCTG | ATP | switch fluorescence ratio | 1.01 |
| TTAATAAGGG | ATP | switch fluorescence ratio | 1 |
| GGCTTAAGAT | ATP | switch fluorescence ratio | 0.998 |
| GGTATGCGCT | ATP | switch fluorescence ratio | 0.993 |
| TGCCGGTAAA | ATP | switch fluorescence ratio | 1.01 |
| GCGTTTTCGT | ATP | switch fluorescence ratio | 0.972 |
| GGTAAAGGTT | ATP | switch fluorescence ratio | 0.999 |
| TTAAAAAGTA | ATP | switch fluorescence ratio | 1.03 |
| GTGAGTAAGC | ATP | switch fluorescence ratio | 1 |
| TTATTTACTA | ATP | switch fluorescence ratio | 1.04 |
| GCGTATTGGC | ATP | switch fluorescence ratio | 1.03 |
| TAGTAATGTT | ATP | switch fluorescence ratio | 0.982 |
| GTGTAATTAT | ATP | switch fluorescence ratio | 0.97 |
| ATCAAAGCGG | ATP | switch fluorescence ratio | 0.998 |
| ATTTCAGGGG | ATP | switch fluorescence ratio | 1.09 |
| AGAAACAAAC | ATP | switch fluorescence ratio | 1.04 |
| TGAATACGGG | ATP | switch fluorescence ratio | 1.01 |
| GACTGGTCGA | ATP | switch fluorescence ratio | 0.996 |
| TGTGGTTTCC | ATP | switch fluorescence ratio | 1.01 |
| AAAAAACTTT | ATP | switch fluorescence ratio | 1.05 |
| TTTTGGGTGG | ATP | switch fluorescence ratio | 0.988 |
| GATACAGCTA | ATP | switch fluorescence ratio | 1.03 |
| CGGGGTGGTT | ATP | switch fluorescence ratio | 1.01 |
| TGCGATATTA | ATP | switch fluorescence ratio | 1.02 |
| GGGTAGTGCG | ATP | switch fluorescence ratio | 0.981 |
| AATTAGGATT | ATP | switch fluorescence ratio | 0.99 |
| GCTAGGTGAC | ATP | switch fluorescence ratio | 1.1 |

Measured values drawn from the supplement of paper PMC10126150 for this set.
